Target: T1, human CD4 on the surface of SKW3 cells or human PBMCs (human, UniProt P01730 26-458)
T1 construct: whole, on cells; SKW3 CD4 knockout cells served as the negative cell line; also called hCD4; SKW3 WT
Assay details: FACS confirmation, supernatant on SKW3 WT cells, anti-mouse Fc A647; background gMFI 3300
Readout label: SKW3 WT anti-mFc 647, gMFI (gMFI)
Answers are plain numbers, in gMFI.

{"Binder": "75110_09G15A (antibody, V domains shown, Tested here as non-clonal hybridoma supernatant from AlivaMab Mouse Kappa mice (detected with anti-mouse Fc and anti-human kappa)) VH: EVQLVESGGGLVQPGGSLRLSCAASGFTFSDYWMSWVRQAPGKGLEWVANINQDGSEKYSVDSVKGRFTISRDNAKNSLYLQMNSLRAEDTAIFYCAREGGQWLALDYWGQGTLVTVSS VL: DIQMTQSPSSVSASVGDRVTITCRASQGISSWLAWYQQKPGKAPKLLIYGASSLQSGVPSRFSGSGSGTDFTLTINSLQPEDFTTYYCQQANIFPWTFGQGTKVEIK", "Unit of measure": "gMFI", "SKW3 WT anti-mFc 647, gMFI": 22300}
{"Binder": "75110_03D16A (antibody, V domains shown, Tested here as non-clonal hybridoma supernatant from AlivaMab Mouse Kappa mice (detected with anti-mouse Fc and anti-human kappa)) VH: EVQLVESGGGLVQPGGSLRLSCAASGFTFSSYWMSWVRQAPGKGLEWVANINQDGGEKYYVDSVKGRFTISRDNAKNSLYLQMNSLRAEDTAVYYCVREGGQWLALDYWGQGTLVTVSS VL: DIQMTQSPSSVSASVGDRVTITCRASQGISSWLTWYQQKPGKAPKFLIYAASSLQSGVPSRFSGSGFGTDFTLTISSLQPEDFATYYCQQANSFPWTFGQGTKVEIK", "Unit of measure": "gMFI", "SKW3 WT anti-mFc 647, gMFI": 36000}

Could you tell me which SKW3 WT anti-mFc 647, gMFI is on file for 75110_07H07A (antibody, V domains shown, Tested here as non-clonal hybridoma supernatant from AlivaMab Mouse Kappa mice (detected with anti-mouse Fc and anti-human kappa)) VH: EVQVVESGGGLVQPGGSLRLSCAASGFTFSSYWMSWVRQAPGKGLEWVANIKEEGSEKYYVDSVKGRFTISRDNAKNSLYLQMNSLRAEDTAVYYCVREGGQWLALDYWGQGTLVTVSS VL: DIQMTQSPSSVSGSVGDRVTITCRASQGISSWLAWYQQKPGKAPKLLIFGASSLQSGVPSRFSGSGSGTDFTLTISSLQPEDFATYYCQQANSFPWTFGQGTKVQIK ? 34300
